assay: yeast display, Sf9 membrane polyspecificity reagent, FACS + sequencing; frameworks hold sequencing errors
readout.label: polyreactivity (PSR sort gate)

QVQLVESGGGLVQAGGSLRLSCAASGFTFYRYAMGWYRQAPGKERELVAAISWSGASTYYADSVKGRFTISRDNAKNTVYLQMNSLKPEDTPVYYCNAYDTYLGGFDYWGQGTQVTVSS
high polyreactivity
QVQLVESGGGLVQAGGSLRLSCAASGFTFYSNAMGWYRQAPGKERELVARITKRGGSTYYADSVKGRFTISRDNAKNTVYLQMNSLKPEDTAVYYCAADDGSDAEYYYWGQGTQVTVSS
high polyreactivity

----------
assay: yeast display, Sf9 membrane polyspecificity reagent, FACS + sequencing; frameworks hold sequencing errors
readout.label: polyreactivity (PSR sort gate)

QVQLVESGGGLVQAGGSLRLSCPSSGIIFYYYAMGWYRQAPGKERELVAAINFSVGGTYYADSVKGRFTISRDNAKNTVYLQMNSEKPEDTEVYYCAKDIVIPATYVEYDYWGQGTQVTVSS
low polyreactivity
QVQLVESGGGIVQAGGSLRLSCAASGFIFKRYAMGWYRQAPGKERELVAAITTSGGRTYYADSVKGRFTISRDNAKNTVYLLMNSLKPEDTAVYYCNADYGTYWWPYYYWGQGTQVTVSS
high polyreactivity
QVQLVESGGGLVQAGGSLRLSCAASGFTFYSYAMGWYRQAPGKERELVAAISRSGGSTRYADSVKGRFTISRENAKNTVYLQMNSLKPEDTAVYYCNAGKDRAYDYWGQGTQVTVSS
high polyreactivity
QVQLVESGGGLVQAGGSLRLSCAASGSIFKIYAKGWYRQAPGKERELVASITGSGGSTYYADSVKGRFTISRDNAKNTVYLQMNSLKPEDTAVYYCAAAVLGSSKSEVDPDRPEYYYWGQGTQVTVSS
low polyreactivity
QVQLVESGGGLVQAGGSLRLSCAASGRIFDCYAMGWYSQAPGKERELVAAITSRGGSTYYADSVKGRFTISRDNAKNTVYLQMNSLKPEDTAVYYCAKRSTSRGYDYWGQGTQVTVSS
high polyreactivity
QVQLVESGGGLVQAGGSLRLSCAASGFIFYKYAMGWYRQAPGKERELVAAITSSAGSTYYADSVKGRFTISRDNAKNTVYLQMNSLKPEDTAVYYCAADFHVDYVYWGQGTQVTVSS
high polyreactivity
QVQLVESGGGLVQAGGSLRLSCAASGSSFGYNAMGWYRQAPGKERELVAAISRSGSTYYADSVKGRFTISRDKAKNTVYLHMNSLKPEDTAVYYCDARLWWTFCEYDYWGQGTQVTVSS
high polyreactivity
QVQLVESGGGLVQAGGSLRLSCAASGRNFRVYAMGWYRQAPGKESELVAAITSGGTTYADSVKGRFTISRDNAKNTGYLQMNSLQPEDTAVYYCAARYYIHRGYDYDYWGQGTQVTVSS
high polyreactivity
QVQLVESGGGLVQAGGILRLSCAPSGRTLPPNAMGWYRHAPGKERELFAGSTWSGGSTYYADSVKGRFTISRDNAKNTVYLPMNSLKPEVTAVYYCAASRSFPGYGLYYYWGQGTQVTVSS
low polyreactivity
QVQLVESGGGLVQAGGSLRLTCAASGSIFQRNAIGWYRQAPGKERELVAAITASGGRTYYADSVKGRFTISRDNAKNTVYLQMNSLKPEDTAVYYCAARGRTYCGGRTYDYWGHGTQVTVSS
high polyreactivity

// each listed sequence needs a value for polyreactivity (PSR sort gate)
1. QVQLVESGVRVVQAGGSLRLRCAASGFTFRDYTMGWYRQAPGKERELVAAISRSGGSTYYADSVKGRFTISRDNAKNTVDLQMNSLKPEDTAVYYCAALWHAVSYADYDYWGQGTQVTVSS
2. QVQLVESGGGLVQAGGSLRLSRAASGRTFYGYAMGWYRQAPGKESELVARIRSGGSTNYADSVKGRFTISRDNAKNTVYLLMNSLIPEDTAVFYCAARPGAAGYKYYYWGQGTQVTVSS
3. QVQLVESGGGLVQAGGSLRLSCAASGRTFDFYAMGWYRQAPGKERELVASNTFSTGSTTYADSVKGRFTISRDNAKITVYLQMNILKPEDTAVYYCAADGDCWWWSYVDRYDYWGQGTQVTVSS
4. QVQLVESGVGLVQAGGSLRLSCAASGGTFRPYAMGWYRHAPGKESELVAAISYTGSTYYADSVKGRFTISRDNAKNTVYLQMNSLKPVDTAVYYCAKDLWYPPRFDYWGQGTQVTVSS
5. QVQLVESGGGLVQAGGSLRLSCAASGSIFKYYAMGGYRQAPGTERELVAAITQRGGSTYYADSVKGRFTISRDNAKNTGYLQMNRLNPEDTAVYYCNRYSLTAWYYRHGYYYWGQGTQVTVSS
6. QVQLVESGGGLVQAGGSLRLSCAASGSTLNLYAMGWFRQAPGKEMELVAAIRSHGVSTYYADSVKGRFTISRDNAKNTVYLQMNRLKPEYTAFYYCAGVYIPGGRYTYFPYKRYDYWGQGTQVTVSS
7. QVQLLESGGGIVQAGGSLRLSCAASGRIFVPYAMGWYRQAPGKERELVAAISGRGDSTYYADSVKGRFTISRDNAKNSVYLQMNSLKPEDTAVYYCAKYRPYYTPSYWSRYDYWGQGTQVSVSS
8. QVQLVESGGGLVQSGGSLRLSCAASGFTFGGYAMGWYRQAPAKERELVAAISQSGGRTYYADSVKGRFTISRDNAKITVYLQMNSLKPEDTAVYYCAKPSTTYYQRGDYWGQGTQVTVSS

[reply]
["high polyreactivity", "high polyreactivity", "low polyreactivity", "low polyreactivity", "high polyreactivity", "high polyreactivity", "high polyreactivity", "high polyreactivity"]

----------
assay: yeast display, Sf9 membrane polyspecificity reagent, FACS + sequencing; frameworks hold sequencing errors
readout.label: polyreactivity (PSR sort gate)

Worked examples, 4 sequences total:
QVQLVESGGRLVQAGGSIRLSCAASGRIFTDNAMGWYRQAPGKERELVAAISWDGSSTSYADSVKGRFTISRDNAKNTVYLQMNSLQPEDTAVYYCAASGVGTNHYGYWNESDYWGQGTQVTVSS
low polyreactivity
QVQLVESGGGLVQAGGSLRLSCAASGRTFSRKAMRWYRQAPGKERELVASISRSGGSTYYADSVKGRFTISRDIAKNTVYLQMNSLKPEDTAVYYCAASYWHRRYDYWGQGTQVTVSS
high polyreactivity
QVQLVESGGGLVQAGGSLRLSCAASGRIFYSNAMGWYRQAPGKERELVAAITTSGASTYYADSVKGRFTISRDNAKNTVYLQMNSLKPEDTSVYYCATYAVVYPFAMDYWGQGTQVTVSS
low polyreactivity
QVQLVESGGGLVQAGGSLRLSCAASGSIFRIYAMGWYRQAPGKEREWVAAINSGGITNYADSVKGRFTISRDNAKNTVYLQMNSLKPEDTAVYYCNARQGVYGLYLRAYPYEYWGQATQVTVSS
low polyreactivity

// each listed sequence needs a value for polyreactivity (PSR sort gate)
1. QVQLVESGGGLVQGGGSLRLSCAASGRTFQTNVMGWYRPAPGKERELVAAITLSGGSTNYADSVKGRFTISRDNAKNTVYVQMNSLKPEDTAVYYCNAERRYRHQWTPHYEYDYWGQGTQVSVSS
2. QVQLVESGGGLVQAGGSLRLSCAASGSTFYRYPMGWYRQAPGKERELVAGITGSGRRTYYADSVKGRFTISRDNAKNTVYFQMNSVKPEDTAVYYCNKRRASWSPAGGTYNYWGQGTQVTVSS
3. QLQLVESGGGLVQAGGSLRLSCAASGSTIDHNAMGWYRQAPGKERELVATISSSGGSTYYADSVKGRFTISRDNAKNTVYFQMNSLKPEDTAGYDCNRYFRRGGRYPYNYWGQGTQVTVSS
4. QVQHVESGGGLVQAGGSLRLSCAASGITFYVNDMGWSRQAPGKEREFVAAISYRGGSPYYADSVKGRFTFSRDNAKNTVYLKMNSLKPEDTAVYYCAADYNYWSPHRYDYWGQGTQVTVSS
5. QVQLVESGGGLVQAGGSLRLSCAASGRSFSYNAMGWYRQAPGKERELVAAISYGGGRTYYADSVKGRFTISRDNAKNTVYLQMNSLKPEDTAVYYCNRYGRQYDFYYWGQGTQVSVSS
6. QVQLVESGGGLVQAGGSLRLSCAASGFILKPNAMGWYRQAPGKERELVAAISWSSGSTYYADSVKGRFTISRDNAKNTVYLQMNRLKPEDTAVYYCAADYFVYPDDWYDYWGQGTQVTVSS
7. QVQLVESGGGLVQAGGSLRLSCAASGFTFDIYAMGWYRQAPGKERELVADITSGGSTDYADSVKGRFTISRDNAKNTVYVQMNSLKPEDTAVYYSNAAVFYDPEWQYDYWGQGTQVTVSS

[reply]
low polyreactivity
low polyreactivity
high polyreactivity
low polyreactivity
high polyreactivity
low polyreactivity
low polyreactivity

----------
assay: yeast display, Sf9 membrane polyspecificity reagent, FACS + sequencing; frameworks hold sequencing errors
readout.label: polyreactivity (PSR sort gate)

QVQLVESGGGLVQAGGRLRLSCAASGFIFRAYAMGWYRQAPGKERELVAAISRGGGTYYADSVKGRFTISRDNAKNTVYLQMNSLKPEDTAVYYCAVDLLRRGFTTVVTTYDYWGQGTQVTVSS
high polyreactivity
QVQLVDSGGGLVQAGGSLRLSCAASGRIFRRYTMGWYRQAPGKERELVAAISSGGGTNYADSVKGRFSISRDNAKNTVYLQMNSLKPEDTAVYYCNARSWLSRGYGYWGQGTQVTVSS
high polyreactivity
QVQLVESGGGLVQAGGSLRLSCAASGFIFQSYAMGWYRQAPGKERELVASITRSGGSTYYADSVKGRFTISRDNAKNTVYLQMNSLKPEDTAVYYCNTYRNHYGWRKFNYWGQGTQVTVSS
high polyreactivity
QVQLVESGGGLVQAGGSLRLSCAASGSIFEINAMGWYRQAPGKERELVAAITQSGGITYYADSVKGRFTISRDNAKNTVYLQINSLKPEDTAVYYCNTPLLKRTTRGRERNYWGQGTQVTVSS
low polyreactivity

// each listed sequence needs a value for polyreactivity (PSR sort gate)
1. QVQLVESGGGLVPAGGSLRLSCAASGSTFPGYAMGWYRQAPGQERELVAAISTSGGRTYYADSVKGRFTISRDNAKNTVYLQMNSLKPEDTAVYYCARVAFYVAHGGFAFGRYYYWGQGTQVTVSS
2. QVQLVESGGGLVQAGGSLRLSCAASGYTFRYYAMGGYRQAPGKERELVADINSGDITNYADSVKGRFTISRDNAKNTVYLQMNSQKPEDTAVYYCAPRTFSLYDYWGQGTQVTVSS
3. QVQLVESGGGLVQAGGSLRLSCAASGFIFSRYPMGWYRQAPGKERELVASISWRGGSTSYADSVKGRFTISRDNAKNTVYLQMNSLKPEDTAVYYCAASSRQVLEYDYWGQGTQVTVSS
4. QVQLVESGGGLVQAGGSLRLSCAASGSIFGAYAMGWYRQAPGKERELVATITLRDGSTYYADSVKGRFTISRDNAKNTVYLQMNSLKPEDTAVSYCATYYSAINYGWSKTILYDYWGQGTQVTVSS
5. QVQLVESGGGLVQAGGSLRLSCAASGRTFYYNGMGWYRQAPGKERELVATITNGGSTNYADSVKGRFTISRDNAKNTVYLQMNSLKPEDTAVYYCAKTLASDCYDYWGQGTQVTVSS

[reply]
1. low polyreactivity
2. low polyreactivity
3. high polyreactivity
4. low polyreactivity
5. low polyreactivity

// each listed sequence needs a value for polyreactivity (PSR sort gate)
1. QVHLVESGGGLVQAGGSLRLSFAASGIILYDYAMGWNRQAPGKEREMVAGINRSGGITYYADSVKGRFTISRDNAKNTVYFQMNSLIPEDTAVYYCNAVFRYGATRSYRYDYWGQGTQVTVSS
2. QVQLVESGGGLVQAGGSLRLSCAASGIIFNYYAMGWYRQAPGKERELVAAISASGGSTYYADSVKGRFTISRDNAKNTVYLQMNSLKPEDTAVYYCNAAVLYRQYGRGDYWGQGTQVTVSS
3. QVQLVESGGGLVQAGGSLRLSCAASGRTSNIYAMGWYRQAPGKERELVAAIRTGGSTNYADSVKGRFTISRDNAKNSVYLQMNSLKPEDTAVYYCAATSRRSRPAEEYWGQGTQVTVSS

[reply]
1. high polyreactivity
2. low polyreactivity
3. high polyreactivity

Origin of values: the nanobody polyreactivity screen of Harvey et al. (2022)
